Here the recorded IC50 is given for each entry.
# target-of-assay: HLA B*0702 (Homo sapiens, UniProt P01889)
# protocol-notes: HLA class I binding assay (cell-free competition, fluorescence polarization)
Where a SMILES comes first, the peptide text is derived from it.
Just the number please, in nM, no unit attached.

[[record]]
compound = "N=C(N)NCCC[C@H](NC(=O)[C@H](Cc1ccc(O)cc1)NC(=O)[C@H](CCCCN)NC(=O)[C@@H]1CCCN1C(=O)[C@@H](N)Cc1c[nH]cn1)C(=O)N[C@@H](CC(N)=O)C(=O)N[C@@H](Cc1ccccc1)C(=O)N[C@@H](CCCCN)C(=O)N[C@@H](Cc1ccccc1)C(=O)O (H-HPKYRNFKF-OH)"
result_units = "nM"
value_measured = 336

[[record]]
compound = "CC[C@H](C)[C@H](NC(=O)[C@H](CO)NC(=O)[C@H](CCCCN)NC(=O)[C@H](CO)NC(=O)[C@H](CC(N)=O)NC(=O)[C@@H](NC(=O)[C@H](CO)NC(=O)[C@H](Cc1ccc(O)cc1)NC(=O)[C@H](CC(C)C)NC(=O)[C@@H](N)CCCCN)[C@@H](C)CC)C(=O)O (H-KLYSINSKSI-OH)"
result_units = "nM"
value_measured = 225000


Now look at this one.
CC[C@H](C)[C@H](NC(=O)[C@H](CC(N)=O)NC(=O)[C@@H](NC(=O)[C@@H]1CCCN1C(=O)[C@H](CCSC)NC(=O)[C@@H]1CCCN1C(=O)[C@@H](N)Cc1c[nH]cn1)[C@@H](C)CC)C(=O)N[C@@H](CCCCN)C(=O)N[C@@H](CC(C)C)C(=O)O (H-HPMPINIKL-OH) yielded IC50 of 168

----------
# target-of-assay: HLA A*0101 (Homo sapiens, UniProt P04439, A114D/A174V/A182V/D101N/D185E/E176A/E190D/L180R/Q94H/R68K/S129P/T187R/V100A/V91M/W191G)
# protocol-notes: HLA class I binding assay (cell-free competition, fluorescence polarization)
Where a SMILES comes first, the peptide text is derived from it.
observable: pIC50
Just so you know, pIC50 here is -log10 of the concentration in molar units; reply with that number alone.

Example compounds with recorded pIC50:
[[record]]
compound = "CC[C@H](C)[C@H](NC(=O)[C@@H](N)CC(C)C)C(=O)N[C@@H](CO)C(=O)N[C@@H](CCCNC(=N)N)C(=O)N[C@@H](CC(C)C)C(=O)N[C@H](C(=O)N[C@@H](CC(C)C)C(=O)N[C@@H](CCCCN)C(=O)N[C@@H](Cc1ccc(O)cc1)C(=O)O)[C@@H](C)O (H-LISRLTLKY-OH)"
value_measured = 4.94

[[record]]
compound = "CC(C)C[C@H](NC(=O)[C@H](CC(=O)O)NC(=O)[C@H](CC(=O)O)NC(=O)[C@H](CO)NC(=O)[C@@H](N)CC(=O)O)C(=O)N[C@@H](CCCCN)C(=O)N[C@@H](CCC(=O)O)C(=O)N[C@@H](CO)C(=O)N[C@@H](Cc1ccc(O)cc1)C(=O)O (H-DSDDLKESY-OH)"
value_measured = 5.58

[[record]]
compound = "C[C@H](NC(=O)[C@H](CO)NC(=O)[C@@H](N)CO)C(=O)N[C@@H](CC(N)=O)C(=O)N[C@@H](CC(=O)O)C(=O)N[C@@H](CCC(=O)O)C(=O)N[C@@H](CCC(N)=O)C(=O)N[C@@H](CO)C(=O)N[C@@H](Cc1ccc(O)cc1)C(=O)O (H-SSANDEQSY-OH)"
value_measured = 4.19


CC[C@H](C)[C@H](NC(=O)[C@H](CC(N)=O)NC(=O)[C@H](CCC(=O)O)NC(=O)[C@@H](NC(=O)[C@H](CC(N)=O)NC(=O)[C@H](CO)NC(=O)[C@H](CO)NC(=O)[C@@H](N)CC(C)C)[C@@H](C)CC)C(=O)N[C@@H](Cc1ccc(O)cc1)C(=O)O (H-LSSNIENIY-OH) yielded pIC50 of 4.53

----------
# target-of-assay: HLA A*0101 (Homo sapiens, UniProt P04439, A114D/A174V/A182V/D101N/D185E/E176A/E190D/L180R/Q94H/R68K/S129P/T187R/V100A/V91M/W191G)
# protocol-notes: HLA class I binding assay (cell-free competition, fluorescence polarization)
pIC50: −log10 of the molar value. Where a SMILES comes first, the peptide text is derived from it.
observable: pIC50

Example molecules with recorded pIC50:
[[record]]
molecule = "CSCC[C@H](NC(=O)[C@H](CC(N)=O)NC(=O)[C@H](CC(N)=O)NC(=O)[C@H](CCCNC(=N)N)NC(=O)[C@H](Cc1ccccc1)NC(=O)[C@H](CC(N)=O)NC(=O)[C@H](CC(N)=O)NC(=O)[C@@H](N)CC(N)=O)C(=O)N[C@@H](Cc1ccc(O)cc1)C(=O)O (H-NNNFRNNMY-OH; N-terminus assumed)"
value_measured = "< 3.00"

[[record]]
molecule = "CC(C)[C@H](NC(=O)[C@H](CCC(=O)O)NC(=O)[C@H](Cc1ccccc1)NC(=O)[C@@H](NC(=O)[C@@H](N)CC(=O)O)[C@@H](C)O)C(=O)N[C@@H](Cc1ccc(O)cc1)C(=O)N[C@@H](CO)C(=O)N[C@@H](CCC(=O)O)C(=O)N[C@@H](Cc1ccc(O)cc1)C(=O)O (H-DTFEVYSEY-OH; N-terminus assumed)"
value_measured = "< 3.00"


NCCCC[C@H](NC(=O)[C@H](CO)NC(=O)CN)C(=O)N[C@@H](CC(N)=O)C(=O)N[C@@H](CC(=O)O)C(=O)N[C@@H](Cc1ccccc1)C(=O)N[C@@H](CCC(N)=O)C(=O)N[C@@H](CCC(N)=O)C(=O)N[C@@H](CCC(N)=O)C(=O)N[C@@H](Cc1ccc(O)cc1)C(=O)O (H-GSKNDFQQQY-OH; N-terminus assumed) yielded pIC50 of < 3.00

----------
# target-of-assay: HLA A*0101 (Homo sapiens, UniProt P04439, A114D/A174V/A182V/D101N/D185E/E176A/E190D/L180R/Q94H/R68K/S129P/T187R/V100A/V91M/W191G)
# protocol-notes: HLA class I binding assay (cell-free competition, fluorescence polarization)
pIC50: −log10 of the molar value. Where a SMILES comes first, the peptide text is derived from it.
observable: pIC50

Example molecules with recorded pIC50:
[[record]]
molecule = "CC[C@H](C)[C@H](NC(=O)[C@@H](N)Cc1ccccc1)C(=O)N[C@@H](CC(=O)O)C(=O)N1CCC[C@H]1C(=O)N[C@@H](CCC(N)=O)C(=O)N[C@H](C(=O)N[C@@H](CCC(=O)O)C(=O)N[C@@H](CCSC)C(=O)N[C@@H](Cc1ccccc1)C(=O)N[C@@H](CCCCN)C(=O)O)[C@@H](C)O (H-FIDPQTEMFK-OH)"
observable = "pIC50"
value_measured = 4.33

[[record]]
molecule = "CC(C)[C@H](NC(=O)[C@H](CC(N)=O)NC(=O)[C@@H]1CCCN1C(=O)[C@H](CO)NC(=O)[C@@H](N)CC(N)=O)C(=O)N[C@@H](CC(N)=O)C(=O)N[C@@H](CCCCN)C(=O)N[C@@H](CCCNC(=N)N)C(=O)N[C@@H](Cc1ccc(O)cc1)C(=O)O (H-NSPNVNKRY-OH; N-terminus assumed)"
observable = "pIC50"
value_measured = "< 3.00"

[[record]]
molecule = "CC(C)C[C@H](NC(=O)[C@H](C)NC(=O)[C@H](CO)NC(=O)[C@@H](NC(=O)[C@H](CCCCN)NC(=O)[C@H](CC(=O)O)NC(=O)[C@H](CCCNC(=N)N)NC(=O)[C@@H](N)CS)[C@@H](C)O)C(=O)N[C@@H](Cc1ccc(O)cc1)C(=O)O (H-CRDKTSALY-OH; N-terminus assumed)"
observable = "pIC50"
value_measured = "< 3.00"

[[record]]
molecule = "CC(C)C[C@H](NC(=O)[C@@H]1CCCN1C(=O)[C@H](Cc1ccccc1)NC(=O)[C@H](CC(N)=O)NC(=O)[C@H](Cc1ccccc1)NC(=O)[C@H](CC(N)=O)NC(=O)[C@H](CCC(=O)O)NC(=O)[C@H](CC(C)C)NC(=O)[C@@H](N)Cc1ccccc1)C(=O)O (H-FLENFNFPL-OH)"
observable = "pIC50"
value_measured = "< 3.00"

[[record]]
molecule = "C[C@@H](O)[C@H](N)C(=O)N[C@@H](CO)C(=O)N[C@@H](CCCCN)C(=O)N[C@@H](CCC(N)=O)C(=O)NCC(=O)N[C@@H](CO)C(=O)N[C@@H](CO)C(=O)N[C@@H](CC(N)=O)C(=O)N[C@@H](CCCCN)C(=O)N[C@@H](Cc1ccc(O)cc1)C(=O)O (H-TSKQGSSNKY-OH; N-terminus assumed)"
observable = "pIC50"
value_measured = "< 3.00"


C[C@H](N)C(=O)N[C@@H](CO)C(=O)N[C@@H](Cc1ccccc1)C(=O)N[C@@H](CO)C(=O)N[C@@H](C)C(=O)N[C@@H](CO)C(=O)N[C@H](C(=O)NCC(=O)N[C@@H](Cc1ccc(O)cc1)C(=O)O)[C@@H](C)O (H-ASFSASTGY-OH) yielded pIC50 of < 3.00

CSCC[C@H](NC(=O)[C@H](CC(N)=O)NC(=O)[C@H](CCC(N)=O)NC(=O)[C@H](CC(N)=O)NC(=O)[C@H](C)NC(=O)[C@H](CCSC)NC(=O)[C@@H](N)[C@@H](C)O)C(=O)N[C@@H](CC(N)=O)C(=O)N[C@@H](Cc1ccc(O)cc1)C(=O)O (H-TMANQNMNY-OH) yielded pIC50 of 5.70
